# reported self-cleavage kobs at 2500 uM GlcN6P; entries follow
B1: glmS ribozyme (parent)
chain: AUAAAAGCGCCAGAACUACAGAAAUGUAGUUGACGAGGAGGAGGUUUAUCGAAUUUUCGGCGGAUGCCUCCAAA

Variants of: B1
Test summary: self-cleavage kobs at 2500 uM GlcN6P; higher = faster cleavage; RNA array
Test context: with glucosamine-6-phosphate
This sample holds only a part of the variants without activity.
Quantity measured: self-cleavage kobs at 2500 uM GlcN6P (s⁻¹)

1) A39G G40U U55C C71A | 0.00448
2) A52U C70A | 8.32e-05
3) C16G C34G G60U C61G U65A C67G | 0.000198
4) U31A G41C | 9.73e-05
5) U54G C70A | 0.000143
6) A39U G44A | 0.001
7) A39U U54C | 0.00989
8) U45C U46C C70A | 0.000116
9) A52G C70U | 0.000878
10) C50A C67G | 4.73e-05

These entries and their values trace back to the supplement of paper PMC7125110.
